Literature survey of IC50 (system: SIK1 (Homo sapiens, UniProt P57059)).
Sequence (P57059 whole entry): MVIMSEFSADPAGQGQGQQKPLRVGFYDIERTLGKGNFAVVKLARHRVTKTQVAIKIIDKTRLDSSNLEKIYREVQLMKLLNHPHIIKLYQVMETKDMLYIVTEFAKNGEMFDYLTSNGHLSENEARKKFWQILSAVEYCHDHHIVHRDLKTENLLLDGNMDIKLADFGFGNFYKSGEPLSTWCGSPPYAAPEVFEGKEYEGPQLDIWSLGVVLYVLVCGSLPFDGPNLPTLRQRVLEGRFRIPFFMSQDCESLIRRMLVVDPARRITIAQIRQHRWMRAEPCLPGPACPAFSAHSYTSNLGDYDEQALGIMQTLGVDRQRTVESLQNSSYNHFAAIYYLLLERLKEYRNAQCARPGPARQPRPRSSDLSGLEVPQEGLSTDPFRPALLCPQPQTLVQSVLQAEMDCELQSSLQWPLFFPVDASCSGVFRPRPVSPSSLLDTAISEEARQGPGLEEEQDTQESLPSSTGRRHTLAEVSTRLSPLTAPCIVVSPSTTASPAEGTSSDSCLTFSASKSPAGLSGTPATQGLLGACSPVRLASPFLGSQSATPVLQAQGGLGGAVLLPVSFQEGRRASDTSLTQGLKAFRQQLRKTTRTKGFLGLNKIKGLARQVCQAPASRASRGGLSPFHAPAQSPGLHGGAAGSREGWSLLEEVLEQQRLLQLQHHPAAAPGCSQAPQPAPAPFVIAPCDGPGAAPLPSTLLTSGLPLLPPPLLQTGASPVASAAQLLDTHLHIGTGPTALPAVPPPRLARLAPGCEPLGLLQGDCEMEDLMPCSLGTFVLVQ
Measurement Name: IC50 (µM)

// known answers, use as guide
| Molecule | Endpoint Result |
| --- | --- |
| COc1cc2ncn(-c3ccc(CO)c(N4CCCCC4)n3)c2cc1OC | 0.326 |
| Cc1ccc(Nc2ccc3c(c2)ncn3-c2ccc([C@@H](C)O)c(-n3nc(C(F)F)cc3C)n2)nn1 | 7.09 |
| COc1cc(C#N)n2c(-c3cc(OC)c(C#N)c(OCC4(N)CCCCC4)c3)cnc2c1 | 0.0051 |
| Cc1ccc(Nc2ccc3ncn(-c4ccc(C(C)O)c(N5CC[C@H]6NCC[C@@H]65)n4)c3c2)nn1 (stereo partly shown) | 0.065 |

a: COc1ccc2ncc(-c3cc(OCC4(N)CCCC4)c(C#N)c(SC)c3)n2c1C#N
b: COc1cc2ncn(-c3ccc(C(N)=O)c(Nc4ccccc4)n3)c2cc1OC
c: Cc1cc(C#N)nn1-c1nc(-n2cnc3cc(-c4ccc5c(n4)C(=O)N(C)C5)ccc32)ccc1C(C)O (stereo not shown)
Q: Given 3 molecules, produce a descending ranking by IC50. Answer by listing the labels in the requested order.
Result: c, b, a

P: Cc1ccc(Nc2ccc3c(c2)ncn3-c2ccc(C(C)O)c(N3CC4CC4(C#N)C3)n2)nn1 (stereo not shown)
Q: Cc1ccc(Nc2ccc3c(c2)ncn3-c2ccc(C(C)O)c(-c3ccoc3C#N)n2)nn1 (stereo not shown)
Q: // compare measured IC50, left P , right Q , return larger Please indicate the selected item by its label.
Result: Q
(Q: 9.95 µM, P: 1.1 µM)

P: CC(=O)c1ccc(-n2cnc3cc4c(cc32)CCN4)nc1-n1nc(C#N)cc1C
Q: Cc1ccc(Nc2ccc3c(c2)ncn3-c2ccc(C(C)O)c(-n3nc(C#N)c4c3CCNC4)n2)nn1 (stereo not shown)
R: COc1ccnnc1Nc1ccc2c(c1)ncn2-c1ccc(C(C)O)c(-n2nc(C#N)cc2C)n1 (stereo not shown)
S: COc1cc2ncn(-c3ccc(C(O)C4CC4)c(-c4cccc(Cl)c4)n3)c2cc1OC (stereo not shown)
T: Cc1ccc(Nc2ccc3c(c2)ncn3-c2ccc(C(C)O)c(-c3cc(C#N)n(C)n3)n2)nn1 (stereo not shown)
Q: Put the items in order so that reported IC50 rises from first to last. Answer by listing the labels in the requested order.
Result: Q, P, R, S, T
(Q: 0.003 µM, P: 0.013 µM, R: 0.223 µM, S: 0.777 µM, T: 7.78 µM)

A: Cc1cc(C(F)F)nn1-c1nc(-n2cnc3cc(Nc4ccc(Cl)nn4)c(F)cc32)ccc1C(C)O (stereo not shown)
B: Cc1ccc(Nc2ccc3c(c2)ncn3-c2ccc(C(C)O)c(N3CCNC(C(F)(F)F)C3)n2)nn1 (stereo not shown)
Q: # min-compare on IC50 between A and B Please indicate the selected item by its label.
Result: A
(A: 1.22 µM, B: 3.34 µM)

* * *

Literature survey of IC50 (system: SIK1 (Homo sapiens, UniProt P57059)).
Measurement Name: IC50 (nM)

// known answers, use as guide
| Molecule | Units Of Measure | IC50 |
| --- | --- | --- |
| COCCOc1ccc(Nc2ccc3c(c2)ncn3-c2ccc(C(C)O)c(-n3nc(C#N)cc3C)n2)nn1 (stereo not drawn) | nM | 68 |
| Cc1cc(C#N)nn1-c1nc(-n2cnc3cc(N4CCCC45COC5)ccc32)ccc1C(C)O (stereo not drawn) | nM | 137 |
| Cc1ccc(Nc2ccc3ncn(-c4ccc(C(C)O)c(NCC5(C#N)CC5)n4)c3c2)nn1 (stereo not drawn) | nM | 3530 |
| Cc1ccc(Nc2ccc3c(c2)ncn3-c2ccc(C(C)O)c(N(C)CC3(C#N)CC3)n2)nn1 (stereo not drawn) | nM | 3490 |
| Cc1ccc(Nc2ccc3c(c2)ncn3-c2ccc(CO)c(-c3cn(CC(F)(F)F)nc3C)n2)nn1 | nM | 1090 |

A: Cc1ccc(Nc2ccc3c(c2)ncn3-c2ccc(C(C)O)c(-c3cncc(C#N)c3)n2)nn1 (stereo not drawn)
B: Cc1ccc(Nc2ccc3c(c2)ncn3-c2ccc(C(C)O)c(-c3cnn(CC(F)(F)F)c3C)n2)nn1 (stereo not drawn)
Q: // compare measured IC50, left A , right B , return larger Please indicate the selected item by its label.
Result: A

1: COc1cc(C(F)F)nn1-c1nc(-n2cnc3cc(Nc4ccc(C)nn4)ccc32)ccc1C(C)O (stereo not drawn)
2: Cc1ccc(Nc2ccc3c(c2)ncn3-c2ccc([C@@H](C)O)c(-c3cn(CC(F)(F)F)nc3C)n2)nn1
Q: // compare measured IC50, left 1 , right 2 , return larger Please indicate the selected item by its label.
Result: 1
(1: 271 nM, 2: 63 nM)

I: Cc1ccc(-c2ccc3c(c2)ncn3-c2ccc(C(C)O)c(-n3nc(C#N)cc3C)n2)nn1 (stereo not drawn)
II: COc1cc2ncn(-c3ccc(C(=O)O)c(N4CCCCC4)n3)c2cc1OC
Q: # min-compare on IC50 between I and II Please indicate the selected item by its label.
Result: I

I: CC(=O)c1ccc(-n2cnc3ccc(Nc4ccc(C)nn4)cc32)nc1-n1nc(C#N)cc1C
II: Cc1ccc(Nc2ccc3c(c2)ncn3-c2ccc(C(C)O)c(-c3c(C)noc3C)n2)nn1 (stereo not drawn)
III: CSc1cc(-c2cnc3ccc(C)c(C#N)n23)cc(OCC2(N)CCCC2)c1C#N
IV: COc1ccc(Nc2ccc3c(c2)ncn3-c2ccc(C(C)O)c(-n3nc(C#N)cc3C)n2)nn1 (stereo not drawn)
Q: Given 4 molecules, produce a descending ranking by IC50. Answer by listing the labels in the requested order.
Result: II, I, IV, III
